# TEST NAME: reversal of MRP1-mediated doxorubicin resistance, pilot screen, H69AR cells, doxorubicin co-treatment (AID 601)
# RUN PARAMETERS: H69AR cells + 2 uM doxorubicin, CellTiter-Glo, 72 h; at 10 µM; hits give high values
Quick list: differential viability (reversal) per entry.
PROPERTY LABEL: differential viability (reversal) (%)

{"COMPOUND": "COC(=O)CN(c1ccc(C)c(Cl)c1)S(C)(=O)=O", "MEASURED VALUE": 10.7}
{"COMPOUND": "CC(=O)OCC(=O)[C@@]1(O)CC[C@H]2[C@@H]3CCC4=CC(=O)C=C[C@]4(C)[C@@]3(Cl)[C@@H](Cl)C[C@@]21C", "MEASURED VALUE": -13}
{"COMPOUND": "COC(=O)C(C)Sc1nc2c(c(=O)n(C)c(=O)n2C)n1Cc1cccc(C)c1 (stereo not given)", "MEASURED VALUE": 8.71}
{"COMPOUND": "CC(=O)c1cc(Cl)ccc1OC(=O)c1ccco1", "MEASURED VALUE": -3.25}
{"COMPOUND": "COC(=O)c1c(NC(=O)CSc2nnc(-c3cccnc3)n2Cc2ccco2)sc(C)c1C", "MEASURED VALUE": 9.16}

* * *

A collection of compounds and their measured viability
# TEST NAME: growth suppression of beta-catenin knockout HCT116, pilot screen, human colon tumor cells (AID 823);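 further: 0% = wells killed by 20 µM Hyamine and 100% = untreated DMSO cell wells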
# RUN PARAMETERS: CellTiter-Glo, 60 h, at 10 µM, hits give low values
Results filed as inconclusive are left out.

{"COMPOUND": "Cc1sc(NC(=O)c2ccco2)c(C(c2cccnc2)N2CCN(c3ccc(F)cc3)CC2)c1C (stereo not drawn)", "UNITS": "%", "viability": 13.3}
{"COMPOUND": "CCC1SC2=NC(C)=C(C(=O)OC)C(c3ccc(C(=O)OC)cc3)N2C1=O (stereo not drawn)", "UNITS": "%", "viability": 101}
{"COMPOUND": "Cc1cc(Nc2ccccc2F)n2nc(C)nc2n1", "UNITS": "%", "viability": 99.2}
{"COMPOUND": "CCN(CC)C(=O)c1cc2c(=O)n3ccccc3nc2s1", "UNITS": "%", "viability": 93.7}
{"COMPOUND": "CC(=O)c1ccc(NC(=O)CSc2nnc(NC(=O)CN3CCOCC3)s2)cc1", "UNITS": "%", "viability": 102}
{"COMPOUND": "CC1Cc2ccccc2N1C(=O)Cn1cnc2ccccc2c1=O (stereo not drawn)", "UNITS": "%", "viability": 99.4}
{"COMPOUND": "COC(=O)C(C(=O)OC)C(C(=O)OC)C(C(=O)OC)C(=O)OC", "UNITS": "%", "viability": 97.2}
{"COMPOUND": "c1cn(CCCNc2ncnc3nc[nH]c23)cn1", "UNITS": "%", "viability": 111}
{"COMPOUND": "Cc1ccc(C)c2c1sc(=NC(=O)CN1C(=O)CCC1=O)n2C", "UNITS": "%", "viability": 88}
{"COMPOUND": "CCOC(=O)C1CCN(S(=O)(=O)c2ccc3[nH]c(=O)oc3c2)CC1", "UNITS": "%", "viability": 97.8}
{"COMPOUND": "COc1ccc(NC(=O)CSc2nnc(Cn3c(=O)sc4ccccc43)n2C)c(OC)c1", "UNITS": "%", "viability": 101}
{"COMPOUND": "O=C(CN1CCOc2ccccc21)NC1CC1", "UNITS": "%", "viability": 88.1}
{"COMPOUND": "COc1ccccc1N(CC(=O)Nc1c(C)cccc1C)S(C)(=O)=O", "UNITS": "%", "viability": 101}
{"COMPOUND": "O=C(NCc1ccccn1)c1ccc2ccccc2n1", "UNITS": "%", "viability": 111}
{"COMPOUND": "COc1ccccc1N1CCN(C(=O)c2cc3cc(Br)ccc3oc2=O)CC1", "UNITS": "%", "viability": 110}
{"COMPOUND": "N#CCCN1CCN(S(=O)(=O)c2ccc(S(=O)(=O)NCC3CCCO3)cc2)CC1 (stereo not drawn)", "UNITS": "%", "viability": 105}
{"COMPOUND": "CCn1c(=O)cc(C(=O)OC)sc1=Nc1ccc(F)c(F)c1", "UNITS": "%", "viability": 18.6}
{"COMPOUND": "COc1cc2[nH]c(=O)n(CCC(=O)N3CCN(c4cccc(C)c4C)CC3)c(=O)c2cc1OC", "UNITS": "%", "viability": 84.2}
{"COMPOUND": "Cn1c(CCNC(=O)C(C)(C)C)nc2ccccc21", "UNITS": "%", "viability": 95.3}
{"COMPOUND": "COC(=O)C1CCN(C(c2cccs2)c2sc3nc(C)nn3c2O)CC1 (stereo not drawn)", "UNITS": "%", "viability": 102}
{"COMPOUND": "Cc1cccc(Nc2ncnc3nc[nH]c23)c1C", "UNITS": "%", "viability": 103}
{"COMPOUND": "Cn1c(=O)oc2cc(S(=O)(=O)NCCN3CCN(c4ccccc4F)CC3)ccc21", "UNITS": "%", "viability": 100}
{"COMPOUND": "COC(=O)CN1C(=O)COc2ccc(Cl)cc21", "UNITS": "%", "viability": 104}

* * *

Quick list: inhibition per entry.
# TEST NAME: inhibitors of the yeast RAM network, pilot screen, dse1pr::URA3 reporter, 5-FOA selection (AID 869);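 further: 0% = DMSO wells with no growth and 100% = 10 µM 1-NA-PP1 with full growth; RAM network block rescues cells from 5-FOA so hits raise OD615 growth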
# RUN PARAMETERS: S. cerevisiae dse1pr::URA3 5-FOA growth, OD615, 2 d; at 10 µM; hits give high values; strain carries analog-sensitive mutant Cbk1 kinase

{"COMPOUND": "CCc1nnc(NC(=O)CSc2nccn2-c2cccc(C)c2C)s1", "UNITS": "%", "inhibition": 0.935}
{"COMPOUND": "C=C(C)Cn1c(CNC(C)=O)nc2ccccc21", "UNITS": "%", "inhibition": 0.645}
{"COMPOUND": "CC(C)(Oc1ccc(-c2ccco2)cc1)C(=O)O", "UNITS": "%", "inhibition": 0.31}
{"COMPOUND": "Cc1ccc(CNC(=O)C2CCCN(c3nc4ccccc4o3)C2)cc1 (configuration not stated)", "UNITS": "%", "inhibition": 0.85}
{"COMPOUND": "CC(=O)Nc1cc(-c2nn3c(C)nnc3s2)ccc1C", "UNITS": "%", "inhibition": 3.41}
{"COMPOUND": "CCOC(=O)N1CCN(CC(=O)Nc2cc(OCC)ccc2OCC)CC1", "UNITS": "%", "inhibition": 2.08}
{"COMPOUND": "CNC(=O)CN1C(=O)CSc2ncccc21", "UNITS": "%", "inhibition": 1.78}
{"COMPOUND": "Cc1ccc(C)c(S(=O)(=O)Nc2ccccc2C(=O)Nc2cc(C)on2)c1", "UNITS": "%", "inhibition": 2.54}
{"COMPOUND": "O=C(CSc1ccc2nnc(-c3ccc(F)cc3)n2n1)N1CCOCC1", "UNITS": "%", "inhibition": 0.08}
{"COMPOUND": "N#Cc1nc(-c2ccccc2F)oc1NCCN1CCOCC1", "UNITS": "%", "inhibition": 1.17}
{"COMPOUND": "COc1ccc(N2CCN(CCNC(=O)c3ccc(NC(=O)C4CCCO4)cc3)CC2)cc1 (configuration not stated)", "UNITS": "%", "inhibition": 1.68}
{"COMPOUND": "Cc1ccc(CC2C(=O)N(c3ncccn3)C(=O)C2C)cc1 (configuration not stated)", "UNITS": "%", "inhibition": 0.685}

* * *

// differential viability (reversal) lookup, one value per entry
# TEST NAME: reversal of MRP1-mediated doxorubicin resistance, pilot screen, H69AR cells, doxorubicin co-treatment (AID 601)
# RUN PARAMETERS: H69AR cells + 2 uM doxorubicin, CellTiter-Glo, 72 h; at 10 µM; hits give high values

{"COMPOUND": "Cc1ccc(C)c(NC(=O)CC(NCCCN2CCOCC2)C(=O)O)c1 (stereo not drawn)", "differential viability (reversal) [%]": -8.47}
{"COMPOUND": "CC(=O)N1C(=O)C2(C(C#N)=C(N)Oc3cc(C)oc(=O)c32)c2ccccc21 (stereo not drawn)", "differential viability (reversal) [%]": 7.52}
{"COMPOUND": "O=C(NC1CCCCC1)N(Cc1ccccc1)Cc1ccco1", "differential viability (reversal) [%]": 3.09}
{"COMPOUND": "O=C(NCC(c1cccnc1)N1CCOCC1)c1cccs1 (stereo not drawn)", "differential viability (reversal) [%]": -0.595}
{"COMPOUND": "O=C(CSc1nnc(Cc2cc(=O)[nH]c(=O)[nH]2)n1-c1ccccc1)NCC1CCCO1 (stereo not drawn)", "differential viability (reversal) [%]": 3.05}
{"COMPOUND": "O=C(CSc1ncnc2c1oc1ccccc12)Nc1ccccc1C(F)(F)F", "differential viability (reversal) [%]": 8.15}
{"COMPOUND": "Cn1c(SCC(=O)O)nnc1C1CCCCC1", "differential viability (reversal) [%]": -1.2}
{"COMPOUND": "CCOC(=O)c1cc2c(=O)n3cccc(C)c3nc2n(CCc2ccccc2)c1=N", "differential viability (reversal) [%]": -1.89}
{"COMPOUND": "COCCNC(=O)CN1CCN(C(c2ccccc2)c2ccccc2)CC1", "differential viability (reversal) [%]": 0.91}
{"COMPOUND": "CCOC(=O)CNC(=O)C(Cc1ccccc1)NS(=O)(=O)c1ccc2c(c1)CCC(=O)N2 (stereo not drawn)", "differential viability (reversal) [%]": -0.925}
{"COMPOUND": "NC(=O)c1ccccc1NC(=O)CN1CCOCC1", "differential viability (reversal) [%]": 6.19}
{"COMPOUND": "O=C(/C=C1\\NC2(CCCC2)Cc2ccccc21)N1CCOCC1", "differential viability (reversal) [%]": 17.3}
{"COMPOUND": "O=C(CN1CCN(c2cccc(Cl)c2)CC1)N1CCCC1", "differential viability (reversal) [%]": -2.74}
{"COMPOUND": "O=c1c[n+]([O-])c2ccccc2n1OCc1c(F)cccc1F", "differential viability (reversal) [%]": 1.98}
{"COMPOUND": "CN1CCC(=C2c3ccccc3CC(=O)c3sccc32)CC1", "differential viability (reversal) [%]": 11.8}
{"COMPOUND": "Cc1cc(Br)ccc1NC(=O)CNC(=O)CSc1n[nH]c(N)n1", "differential viability (reversal) [%]": 16.3}
{"COMPOUND": "Cc1ccccc1C(OCCN(C)C)c1ccccc1 (stereo not drawn)", "differential viability (reversal) [%]": 10.8}
{"COMPOUND": "COc1ccc(Cn2c(CCCO)nc3ccccc32)cc1OC", "differential viability (reversal) [%]": 14.2}
{"COMPOUND": "O=C(O)c1cccnc1Nc1cccc(C(F)(F)F)c1", "differential viability (reversal) [%]": 13.5}
{"COMPOUND": "O=C1CC(c2cccs2)CC2=C1C(c1ccccc1)n1ncnc1N2 (stereo not drawn)", "differential viability (reversal) [%]": -5.41}
{"COMPOUND": "CCOc1c(C)cc2[nH]c(CCC(=O)O)nc2c1C", "differential viability (reversal) [%]": -1.08}
{"COMPOUND": "CCCCn1c(CN2CCN(c3cccc(Cl)c3)CC2)nc2c1c(=O)n(C)c(=O)n2C", "differential viability (reversal) [%]": 50.2}
{"COMPOUND": "O=C(COc1ccc(Cl)cc1)NCc1nnc(SCC(=O)Nc2ccc3c(c2)OCCO3)o1", "differential viability (reversal) [%]": -3.68}

Values from PubChem BioAssay
